The reported numbers originate from patent US12643871B2.

The entries below come with measured Results of comparison experiment, Digitaria sanguinalis (30 g/ha) values attached.
Test system: Digitaria sanguinalis
ASSAY REMARKS: Comparison experiment (post-emergence) against racemate / S configuration
Format: in vivo
STUDY CONDITIONS: 30 g/ha; 3-4 weeks after sowing, 4-5 leaf-stage of weed, 25DAA

These solved cases illustrate the format of a correct answer.
{"COMPOUND": "CCC[S+]([O-])c1c(C(F)(F)F)ccc(C(=O)Nc2nnc(C)o2)c1F (single isomer, unassigned) [Control Compound B]", "VALUE REPORTED": "80%"}
{"COMPOUND": "CCC[S@@+]([O-])c1c(C(F)(F)F)ccc(C(=O)Nc2nnc(C)o2)c1F", "VALUE REPORTED": "100%"}
{"COMPOUND": "CCC[S+]([O-])c1c(C(F)(F)F)ccc(C(=O)Nc2nnc(C)o2)c1F (single isomer, unassigned) [Control Compound A]", "VALUE REPORTED": "0%"}
{"COMPOUND": "Cc1nnc(NC(=O)c2ccc(C(F)(F)F)c([S+](C)[O-])c2F)o1 (single isomer, unassigned) [Control Compound D]", "VALUE REPORTED": "0%"}

Kindly consider the entry below.
Which value of Results of comparison experiment, Digitaria sanguinalis (30 g/ha) has been reported for "Cc1nnc(NC(=O)c2ccc(C(F)(F)F)c([S@@+](C)[O-])c2F)o1" in the records?
90%
